Experimental details: Circular dichroism (CD) spectroscopy
Format: physicochemical
Measurement parameters: buffer with 30% trifluoroethanol
Where a SMILES comes first, the peptide text is derived from it. The star is where a group is joined. Benzoyl(4-F) = O=C(c1ccc(F)cc1)*
Measurement label: % Helical Content CD Buffer + 30% TFE (%)

Molecule	Reading
CC(C)C[C@H](NC(=O)[C@H](CC(=O)O)NC(=O)CNC(=O)[C@H](CCCNC(=N)N)NC(=O)CNC(=O)c1ccc(F)cc1)C(=O)NCC(=O)N[C@@H](CCCNC(=N)N)C(=O)N[C@@H](CC(C)C)C(=O)N[C@@H](C)C(=O)N[C@@H](CCC(N)=O)C(=O)N[C@@H](CCCCN)C(=O)N[C@H](C(=O)N[C@@H](C)C(=O)N[C@@H](CCCNC(=N)N)C(=O)N[C@H](C(N)=O)[C@@H](C)O)C(C)C [SFLAP3-15mer] ({Benzoyl(4-F)}-GRGDLGRLAQKVART-NH2)	31.6
CC(C)C[C@H](NC(=O)[C@H](Cc1ccc(O)cc1)NC(=O)[C@@H](NC(=O)[C@H](CC(C)C)NC(=O)[C@H](CC(=O)O)NC(=O)CNC(=O)[C@@H](NC(=O)c1ccc(F)cc1)C(C)C)[C@@H](C)O)C(=O)N[C@@H](CCCCN)C(=O)N[C@@H](CCC(N)=O)C(=O)N[C@@H](CCCCN)C(=O)N[C@H](C(=O)N[C@@H](C)C(=O)N[C@@H](CCCNC(=N)N)C(=O)N[C@H](C(N)=O)[C@@H](C)O)C(C)C	45.1
CC(C)C[C@H](NC(=O)[C@H](CCCNC(=N)N)NC(=O)CNC(=O)[C@H](CC(C)C)NC(=O)[C@H](CC(=O)O)NC(=O)CNC(=O)[C@H](CCCNC(=N)N)NC(=O)CNC(=O)c1ccc(F)cc1)C(N)=O [SFLAP3-8mer, reference compound] ({Benzoyl(4-F)}-GRGDLGRL-NH2)	6.2

###

Experimental details: Circular dichroism (CD) spectroscopy
Type: physicochemical
Measurement parameters: 25 mM phosphate + 100 mM NaF
Where a SMILES comes first, the peptide text is derived from it. The star is where a group is joined. Benzoyl(4-F) = O=C(c1ccc(F)cc1)*
// % Helical Content CD Buffer lookup, one value per entry
Measurement label: % Helical Content CD Buffer (%)

Compound	Reading
CC(C)C[C@H](NC(=O)[C@H](CC(=O)O)NC(=O)CNC(=O)[C@H](CCCNC(=N)N)NC(=O)CNC(=O)c1ccc(F)cc1)C(=O)NCC(=O)N[C@@H](CCCNC(=N)N)C(=O)N[C@@H](CC(C)C)C(=O)N[C@@H](C)C(=O)N[C@@H](CCC(N)=O)C(=O)N[C@@H](CCCCN)C(=O)N[C@H](C(=O)N[C@@H](C)C(=O)N[C@@H](CCCNC(=N)N)C(=O)N[C@H](C(N)=O)[C@@H](C)O)C(C)C [SFLAP3-15mer] ({Benzoyl(4-F)}-GRGDLGRLAQKVART-NH2)	13.4
CC(C)C[C@H](NC(=O)[C@H](Cc1ccc(O)cc1)NC(=O)[C@@H](NC(=O)[C@H](CC(C)C)NC(=O)[C@H](CC(=O)O)NC(=O)CNC(=O)[C@@H](NC(=O)c1ccc(F)cc1)C(C)C)[C@@H](C)O)C(=O)N[C@@H](CCCCN)C(=O)N[C@@H](CCC(N)=O)C(=O)N[C@@H](CCCCN)C(=O)N[C@H](C(=O)N[C@@H](C)C(=O)N[C@@H](CCCNC(=N)N)C(=O)N[C@H](C(N)=O)[C@@H](C)O)C(C)C	1.6
CC(C)C[C@H](NC(=O)[C@H](CC(=O)O)NC(=O)CNC(=O)[C@@H](N)CCCNC(=N)N)C(=O)N[C@@H](C)C(=O)N[C@@H](CC(=O)O)C(=O)N[C@@H](CC(C)C)C(=O)N[C@@H](CCCNC(=N)N)C(=O)N[C@@H](CCCCNC(=O)c1ccc(F)cc1)C(N)=O [P3] (H-RGDLADLRK(Benzoyl(4-F))-NH2)	11.6
